Values were extracted from the DeepSol protein solubility set.

- Protocol: soluble on expression in E. coli; label from the status in PepcDB or PDB records

| Primary sequence | soluble on expression in E. coli |
| --- | --- |
| GMDEKPAITKIISGGQTGADRAALDFAIKHHIPYGGWVPKGRLAEGGRVPETYQLQEMPTSDYSKRTEKNVLDSDGTLIISHGILKGGSALTEFFAEQYKKPCLHIDLDRISIEDAATLINSWTVSHHIQVLNIAGPRAGKDPEIYQATMDLLEVFLA | soluble |
| SNAMADWVTGKVTKVQNWTDALFSLTVHAPINPFTAGQFTKLGLEIDGERVQRAYSYVNAPDNPNLEFYLVTVPQGKLSPRLAALKPGDEVQVVSDASGFFVLDEVPDCETLWMLATGTAIGPYLSILQYGQDVARFKNLVLVHAARFAADLSYLPLMLELQQRYEGKLRIQTVVSRENVPGSLTGRVPALIENGELEKAVGLPMDKETSHVMLCGNPQMVRDTQQLLKETRQMTKHLRRRPGHMTAEHYW | soluble |

====

- Protocol: soluble on expression in E. coli; label from the status in PepcDB or PDB records

| Primary sequence | soluble on expression in E. coli |
| --- | --- |
| AHHHHHHGSELFFITSNDGKVREAKKFLEPLGINVIKKPLEYPEIQADTLEDVVVFGLNWLKDKVDKPFIIEDSGLFIEALNGFPGVYSAYVYKTIGLDGILKLMEGIENRKAYFKSVIGFYDGEIHLFVGEVRGRISNEKRGLHGFGYDPIFVPDGFDKTFAEMSTEEKNSVSHRGKALKEFYRWMKENLKK | soluble |
| MGHHHHHHSHMSAFASSDRAEKSGIALEAQQKIYEKYDKNLAGEILQWVQNVTGQSFDTQGDADNLVKVFQDGSLLCTLANSLKPGSVKKVNTSAMAFKKMENISFFLKFAEEYVQKSELFQTVDLYEGQDPNAVLICLASLARKSEKNFGRSGLGPKEAQGDRREWTDEQLKAGHNVIGLQMGSNKGATASGLNMGNTRHM | soluble |
| MDIKINDITLGNNSPFVLFGGICVLESLDSTLQTCAHYVEVTRKLGIPYIFKASFDKANRSSIHSYRGVGLEEGLKIFEKVKAEFGIPVITDVHEPHQCQPVAEVCDVIQLPAFLARQTDLVVAMAKTGNVVNIKKPQFLSPSQMKNIVEKFHEAGNGKLILCERGSSFGYDNLVVDMLGFGVMKQTCGNLPVIFDVTHSLQTRDAGSAASGGRRAQALDLALAGMATRLAGLFLESHPDPKLAKCEGASALPLHLLEDFLIRIKALDDLIKSQPILTIE | soluble |
| MSLKRIAIILLTLTSILFVQHVPEGLAKASNELSLEEKYEQRLTLYEKMEAITNVPWYYLAAVDTYERGLRRAQKDRPAEEGLIAIYFSPQQWVGPLNPDLEDTNPLSISMFNGVGLDGNGDGVADRNNDEDVLYTFARYLESYGFKEEDFRIALWEYYQREQSVNIIYGHANVYKTFKTLDLDDHTFPLPLHHNYSYRSTWGDRRGWGGRRIHEGTDIFANYNVPVMATAYGIVEIKGWNKYGGWRIGVRDLDNVYHYYAHLSGFEKGVEKGTVVAPGDVIGYVGSSGYGKPGTQGKFPPHLHYGMYRDNGYTEWSFDPYPSLKSWERKAYQERKKKKEGHHHHHH | soluble |
| MGSDKIHHHHHHADTFSVLAHELMHFVYPSGTELLTPNVTKAANKCTQDEVKMMGDSDAVKPIDGWFSKKVTHEDLANIMGLRMVMKMAAKKSVNEEQLKNALETILGGLCIQGKPKNSILPHHHPFEISINTAVRQYPLFSSLYGCRPGDRMFAEAEKFCNPLGGEVNLEDYKIKNDTEDIGGFFNYIMDTANAFNFSIEN | not soluble |
| MKISTQSEVEGVLIKALSEGKGIQHVELALKDLPAFDRKRARTTAITEVLTAASVAQQEAFEQSPSVEGKKWKHSGGKGIEPRSSHIELSGKVVQINETFTIPGSGELAKYPRDTDLSASERIHCHCALGPAVNEEIL | not soluble |
| MSLKKILVQWKNGPSQIGRMYPLPVFDEHDIVQLCSEVKDILRIQPAVIQRKPGVIIVGDLHGNFLNFLQIFAIHGLPPNQNYIFLGNYINYGEFSLEVVIYLFSLYYLFPSNISLLRGSTEFYPSKGPRSLSSNIDTTYGPNSILKSVFLETFTYLPIACLIGNSVLCSRSSLVSRYSNLQEIFHETLPIPCVVDQSHLFLSGLANVIPSEEVLEEFLATNNLNFLIFGGKNAGDGVENMLDDRCYALASDAHMGYCGIINLVGNQPPFAIIFTPDSDLLRENAQMLREGHHHHHH | not soluble |
| MLWTENITLRFGGVTALDNVSVEVRRGEILGIIGPNGAGKTSLLNVITGVYKPQRGRVYFKGRDITGLKPHQRITLGLSRTFQHSELFHSMTVLENIMVRLHPWTRGSILEKALWAFRAKRWEVEARERAEHVIDLLDLHEHRHSPIGALPPGIQKKVDLAGALAQNPEVVLMDEPMAGLSKEEKEDIVRAIIETSETMHTTMVLIEHDMEVVTDVCDRVVVMDYGKVIFEGPPHEAVADERVRKAYLGE | soluble |
| GKLVRRVLSINEVLGYNPDKGGISFIEAFSWDPVTDTHVFSAMGSSYILENKIATRLGIPGKKKKAIYDEIEKRAKILERLSDEGIVNYWEFFNTIAKITKSGMLRIQ | not soluble |
| MGSDKIHHHHHHMISQNRLRVLARELGVRQGYAEKNYVNSWILWGIFTSDFGENLMFKGGTALSKLYFPQSWRFSEDLDFGVEGQYNGSEDDLRDVLDTVTERSGIEFTISEHHESRQQHYPTHYVDMSIQYRAVLDHPNTTSLDVMVDEYVAFDSVHHTHSYEDIPEFELQAYSVEEIFAEKLRAIFQRGAARDYYDLYQLLETESVEIEFDVVLPAFEAKCDHDDLDVDLTTGLPGDQREDIQRQWETSLPDLTGDPPLFDTVWKRLDEAVIDKGTE | not soluble |
| MAHHHHHHMETTAEEISAMLNENEHALIGELQGKYDFINFNEMKNYKEKKLHHELTLEVQKFINNKNVQVKDKFRLFYTLLSPLMSKLKKTIYAELLYIVTANFDANWTISYLKESEKNLENDKDAIIIYRCILILKYIELGDFKSCENEIENTKNLLQGVIGLNVVAHKFYNFAIMKYYNVLNKSDLFVKYALLYLAYTPLNDLDEADKIEIGTHICMHSIISEDVYNIGEIIQLPLINVCLKNNEQTNWLYQLIYIYNEGNIEVFNQVVHKYEENIKNSLLKDYKKNMIKKITLLALMDLAFKKKKQRSDISFEEIAQHCKVDVNEVEKMLITAKSKNILTCQIDEIQKSVKITWVKPRVLNNEKIFFMKESIDKWITHSKNLLTYMEDLSVELLIS | not soluble |
| MKNIIIIGANGFTGRQILNDLSSKAQYKVTGCSLHPDILPKNGGNYHFITTDIRDEAVVKQLFKDVQPDVVINCSALSVPDYCETHHEEAWLTNVTAVEQLAHLCESYKSRFIHLSTDFVFDGKIDEKSGQLYTEKSLPAPVNYYGFTKWKGEEKVTEICSNYAIARVEIVYGKALPGQHGNIVQLVMNRLNAGQEIRVVSDQWRTPTYVGDVSAGVQHLVENAANGIFHICGEECLTIAEIAFQVADYMKLDRSLVHPATTEEMQEATPRPRFSGMSIAKARTILGYQPRKLKDILMEWKH | not soluble |
